organism: Rattus norvegicus; experiment: Tested for inhibition of rat glial cell gap junction at the concentration of 20 uM; type: functional
MEASURED_METRIC: inhibition at 20 µM (%)
Just the number in %, nothing appended.

Illustrative cases are given below, each with its answer.
COMPOUND	inhibition at 20 µM / %
CCCCC/C=C\C/C=C\C/C=C\C/C=C\CCCC(N)=O [ARACHIDONAMIDE]	90
CCCCC/C=C\C/C=C\C/C=C\C/C=C\CCCC(=O)N(CCO)CCO	0
CCCCCCCC/C=C\CCCCCCCC(=O)N1CCCC1	0
CCCCCCCC/C=C\CCCCCCCC(=O)NC	70
CCCCCCCC/C=C\CCCCCCCC(=O)NCC	50

Identify measured inhibition at 20 µM corresponding to CCCCCCCC/C=C\CCCCCCCC(N)=O [OLEAMIDE]
100

Identify measured inhibition at 20 µM corresponding to `CCCCCCCC/C=C\CCCCCCCC(=O)NCCC`
50

Identify measured inhibition at 20 µM corresponding to CCCCCCCC/C=C\CCCCCCCC(=O)O [OLEIC ACID]
0

Identify measured inhibition at 20 µM corresponding to `CCCCCCCC/C=C\CCCCCCCC(=O)N(C)OC`
100

Ref: ChEMBL document CHEMBL1131678
